procedureSummary: Pharmacokinetic studies, single oral and intravenous dose
Format: in vivo, BALB/c mice
assayContext: male, BALB/c, mouse, plasma; PhosE 3 mg/kg iv, analyte PhosE
measurementType: AUC(0-t) (ng·h/mL)
Report the figure in ng·h/mL without appending any unit label.

Record request: AUC(0-t) value, item NCCOP(=O)(O)O
490

###

procedureSummary: Pharmacokinetic studies, single oral and intravenous dose
Format: in vivo, BALB/c mice
assayContext: male, BALB/c, mouse, plasma; PhosE 60 mg/kg po, analyte PhosE; read-out: Cmax/C0
measurementType: Cmax (ng/mL)
Report the figure in ng/mL without appending any unit label.

Record request: Cmax value, item NCCOP(=O)(O)O
1140

###

target: CYP3A4 (Homo sapiens)
Sequence (P08684 whole entry): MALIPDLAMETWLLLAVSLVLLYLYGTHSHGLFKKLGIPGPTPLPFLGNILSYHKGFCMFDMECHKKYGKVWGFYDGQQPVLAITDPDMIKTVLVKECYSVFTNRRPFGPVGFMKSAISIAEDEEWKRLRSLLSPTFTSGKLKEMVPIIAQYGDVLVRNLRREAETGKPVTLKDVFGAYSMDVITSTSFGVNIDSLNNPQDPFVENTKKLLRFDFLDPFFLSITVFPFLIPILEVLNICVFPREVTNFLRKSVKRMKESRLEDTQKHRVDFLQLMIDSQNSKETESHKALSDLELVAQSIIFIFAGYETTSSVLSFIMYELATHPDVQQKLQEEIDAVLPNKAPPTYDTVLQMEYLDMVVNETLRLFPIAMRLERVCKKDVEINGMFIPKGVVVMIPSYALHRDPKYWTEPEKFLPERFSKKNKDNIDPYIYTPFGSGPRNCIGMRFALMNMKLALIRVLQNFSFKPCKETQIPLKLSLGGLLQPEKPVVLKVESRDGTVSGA
procedureSummary: CYP inhibition in human liver microsomes
assayContext: 3A4-testo: CYP3A4 substrate testosterone, human liver microsomes
measurementType: IC50

Please tell me: IC50 of NCCOP(=O)(O)O , system CYP3A4 (Homo sapiens)?
> 100 µM

###

target: CYP2A6 (Homo sapiens, UniProt P11509)
Sequence (P11509 1-494): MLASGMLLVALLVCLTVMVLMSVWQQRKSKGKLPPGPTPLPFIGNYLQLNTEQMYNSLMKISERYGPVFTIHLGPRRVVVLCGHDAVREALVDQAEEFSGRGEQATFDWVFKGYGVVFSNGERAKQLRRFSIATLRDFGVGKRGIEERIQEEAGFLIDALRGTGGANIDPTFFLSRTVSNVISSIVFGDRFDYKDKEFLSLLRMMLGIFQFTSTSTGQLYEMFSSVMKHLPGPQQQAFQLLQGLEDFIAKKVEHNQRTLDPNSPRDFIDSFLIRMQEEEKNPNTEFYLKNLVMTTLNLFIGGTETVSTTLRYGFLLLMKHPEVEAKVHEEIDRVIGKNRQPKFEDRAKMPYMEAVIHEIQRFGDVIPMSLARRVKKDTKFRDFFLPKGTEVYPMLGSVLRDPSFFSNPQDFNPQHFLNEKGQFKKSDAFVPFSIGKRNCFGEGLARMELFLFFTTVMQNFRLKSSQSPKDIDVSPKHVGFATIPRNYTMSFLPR
measurementType: IC50

[
  {
    "structureString": "NCCO",
    "IC50": "> 100 µM"
  }
]

Turning now to a further molecule:
Record request: IC50 value, item NCCOP(=O)(O)O
> 100 µM

###

# collection of IC50 values tested on CYP2B6 (Homo sapiens, UniProt P20813)
# Sequence (P20813 whole entry): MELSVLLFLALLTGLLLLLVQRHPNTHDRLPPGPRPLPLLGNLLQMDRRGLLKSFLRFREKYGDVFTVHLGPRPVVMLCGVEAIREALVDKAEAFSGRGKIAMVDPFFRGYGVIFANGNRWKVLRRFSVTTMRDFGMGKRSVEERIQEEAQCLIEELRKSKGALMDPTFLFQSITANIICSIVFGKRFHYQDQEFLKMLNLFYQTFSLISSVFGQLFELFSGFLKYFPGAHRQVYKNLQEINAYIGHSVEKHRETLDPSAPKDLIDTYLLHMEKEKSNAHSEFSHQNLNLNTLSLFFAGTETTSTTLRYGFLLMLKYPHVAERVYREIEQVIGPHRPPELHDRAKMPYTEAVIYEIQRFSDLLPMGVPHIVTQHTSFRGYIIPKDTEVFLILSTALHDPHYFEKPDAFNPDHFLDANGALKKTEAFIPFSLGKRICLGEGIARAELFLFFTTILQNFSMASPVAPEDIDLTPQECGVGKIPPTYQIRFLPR

[
  {
    "structureString": "NCCOP(=O)(O)O",
    "target": "CYP2B6 (Homo sapiens, UniProt P20813)",
    "measuredValue": "> 100 µM"
  }
]

Record request: IC50 value, item NCCO
> 100 µM

###

procedureSummary: Pharmacokinetic studies, single oral and intravenous dose
Format: in vivo, BALB/c mice
assayContext: male, BALB/c, mouse, plasma; PhosE 3 mg/kg iv, analyte PhosE; read-out: Vss
measurementType: Vd (L/kg)
Report the figure in L/kg without appending any unit label.

Record request: Vd value, item NCCOP(=O)(O)O
4.82

###

# collection of IC50 values tested on CYP2C19 (Homo sapiens)
# Sequence (P33261 whole entry): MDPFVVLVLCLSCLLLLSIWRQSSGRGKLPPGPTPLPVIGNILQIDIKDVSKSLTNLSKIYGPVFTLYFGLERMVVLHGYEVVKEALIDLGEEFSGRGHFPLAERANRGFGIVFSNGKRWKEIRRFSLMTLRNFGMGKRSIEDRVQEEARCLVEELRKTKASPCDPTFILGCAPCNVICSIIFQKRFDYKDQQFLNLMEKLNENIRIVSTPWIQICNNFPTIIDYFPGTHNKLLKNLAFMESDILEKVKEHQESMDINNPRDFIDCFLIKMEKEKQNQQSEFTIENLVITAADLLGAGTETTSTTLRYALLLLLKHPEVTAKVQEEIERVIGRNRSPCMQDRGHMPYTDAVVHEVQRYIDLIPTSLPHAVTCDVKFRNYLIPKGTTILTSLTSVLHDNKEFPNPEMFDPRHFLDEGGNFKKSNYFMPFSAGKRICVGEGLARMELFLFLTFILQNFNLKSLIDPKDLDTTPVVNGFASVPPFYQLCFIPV

[
  {
    "compound": "NCCOP(=O)(O)O [PhosE, phosphoethanolamine]",
    "target": "CYP2C19 (Homo sapiens)",
    "IC50": "> 100 µM"
  }
]

Turning now to a further compound:
Record request: IC50 value, item NCCO [Etn, monoethanolamine]
> 100 µM
